// provenance: patent US11505536B2

// log10(IC50) lookup, one value per entry
Test system: MOLM-13 cells (human acute myeloid leukemia cells)
Assay: MOLM-13 Cellular Assay
Assay type: cell-based
Settings: Homo sapiens, MOLM-13, 72 h, 72 hours exposure, cell viability by CellTiter-Glo
parameter: log10(IC50) (log10 of the value in nM)

compound	log10(IC50)
C=C(C)c1cn(-c2c(C)ccnc2OC)c(=O)c2cc(F)c(-n3nc(CO)n(CC)c3=O)cc12 [Example 59]	0.70
CCn1c(CO)nn(-c2nc3c(C(C)C)nn(-c4ccccc4C)c(=O)c3cc2F)c1=O [Example 34]	0.60
C=C(C)c1cn(-c2c(C)cnc(OC)c2Cl)c(=O)c2cc(F)c(-n3nc(CO)n(CC)c3=O)cc12 [Example 62]	0.30
[2H]C([2H])([2H])c1ccccc1-n1cc(C(C)C)c2nc(-n3nc(CO)n(CC)c3=O)c(F)cc2c1=O [Example 142]	-0.40
CCn1c(CO)nn(-c2cc3c([C@@H](C)C(F)(F)F)cn(-c4ccccc4C)c(=O)c3cc2F)c1=O [Example 102]	-0.52
CCn1c(CO)nn(-c2ccc3c(=O)n(-c4c(F)cccc4Cl)cc(C4CC4)c3c2)c1=O [Example 9]	0.70
CCn1c(CO)nn(-c2cc3c(C(C)C)cn(CC4CC4)c(=O)c3cc2F)c1=O [Example 115]	1.90
CCn1c(CO)nn(-c2cc3c(C(C)C)cn(C4CCCC4)c(=O)c3cc2F)c1=O [Example 109]	0.95

* * *

pIC50: −log10 of the molar value.
Endpoint: pIC50. System: human DHODH (Homo sapiens (Human)). Items follow.
Sequence (Q02127 whole entry): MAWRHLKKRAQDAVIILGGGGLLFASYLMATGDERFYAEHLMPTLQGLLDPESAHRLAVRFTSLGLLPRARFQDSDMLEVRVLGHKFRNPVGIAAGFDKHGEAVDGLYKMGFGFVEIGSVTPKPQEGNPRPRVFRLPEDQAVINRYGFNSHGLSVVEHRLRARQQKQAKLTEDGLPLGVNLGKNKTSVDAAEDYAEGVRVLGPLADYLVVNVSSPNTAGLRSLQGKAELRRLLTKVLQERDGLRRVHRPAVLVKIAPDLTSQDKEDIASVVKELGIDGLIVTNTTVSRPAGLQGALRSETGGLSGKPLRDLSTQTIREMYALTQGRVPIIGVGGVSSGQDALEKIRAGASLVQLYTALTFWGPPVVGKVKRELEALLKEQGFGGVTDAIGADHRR

molecule	pIC50
CCn1c(CO)nn(-c2cc3c(C(C)C)cn(-c4c(F)ccc(OC)c4Cl)c(=O)c3cc2F)c1=O [Example 80]	9.56
CCn1c(CO)nn(-c2cc3c(C(C)C)cn(-c4c(C)n[nH]c4Cl)c(=O)c3cc2F)c1=O [Example 31]	9.12
CCn1c(CO)nn(-c2cc3c(C(C)C)cn(C4CCCC4)c(=O)c3cc2F)c1=O [Example 109]	8.27
CCn1c(CO)nn(-c2cc3c(C(C)C)cn(-c4c(C)cnc(OC)c4C)c(=O)c3cc2F)c1=O [Example 78]	8.63
CCn1c(CO)nn(-c2nc3c(C(C)C)cn(-c4c(F)cccc4Cl)c(=O)c3cc2F)c1=O [Example 36]	9.45
CCn1c(CO)nn(-c2cc3c(C(C)C)cn(-c4cncnc4C)c(=O)c3cc2F)c1=O [Example 94]	6.25
C=C(C)c1nn(-c2c(F)cccc2Cl)c(=O)c2cc(-n3nc(CO)n(CC)c3=O)c(OC)cc12 [Example 30]	5.46
CCn1c(CO)nn(-c2cc3c(C(C)C)cn(-c4cc(O)ncc4C)c(=O)c3cc2F)c1=O [Example 139]	7.45
CCn1c(CO)nn(-c2nc3c([C@H](C)C(F)(F)F)cn(-c4ccccc4C)c(=O)c3cc2F)c1=O [Example 37]	8.73
CCn1c(CO)nn(-c2cc3c(C(C)C)cn(-c4ccccc4C(F)(F)F)c(=O)c3cc2F)c1=O [Example 103]	9.17
C=C(C)c1cn(-c2cc(C)ccc2C)c(=O)c2cc(F)c(-n3nc(CO)n(CC)c3=O)cc12 [Example 87]	9.53
CCn1c(CO)nn(-c2cc3c(C(C)C)cn(-c4cc(F)ccc4C)c(=O)c3cc2F)c1=O [Example 67]	9.22
C=C(C)c1cn(-c2c(F)cccc2Cl)c(=O)c2cc(F)c(-n3nc(CO)n(CC)c3=O)nc12 [Example 35]	8.94
CCn1c(CO)nn(-c2cc3c([C@@H](C)C(F)(F)F)nn(-c4ccccc4C)c(=O)c3cc2F)c1=O (single isomer, unassigned) [Example 57]	8.94
C=C(C)c1nn(-c2c(F)cccc2Cl)c(=O)c2cc(OC)c(-n3nc(CO)n(CC)c3=O)cc12 [Example 29]	7.08
CCn1c(CO)nn(-c2ccc3c(=O)n(-c4ccc([N+](=O)[O-])cc4F)cc(I)c3c2)c1=O [Example 16]	5.93
